Please respond with reported IC90 for every item in the list.
# System: M. tuberculosis H37Rv growth inhibition with meropenem
# Assay method text: dose response, H37Rv, with and without meropenem (AID 434987);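 further: growth over 7 days at 37 °C before Alamar Blue read on day 9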
# Condition details: measured here: IC90 with meropenem

// known answers, use as guide
>>> recorded_value("COC(=O)c1ccc(/C=N/NC(=O)c2cccc(F)c2)cc1")
"> 100 µM"
>>> recorded_value("CC(C)(C)c1nc2scc(-c3cccs3)c2c(=O)o1")
"> 100 µM"
>>> recorded_value("Cc1cc(C=C2C(=O)NC(=S)NC2=O)c(C)n1-c1ccc2c(c1)OCO2")
"14.5 µM"

Would you be so kind as to report IC90 for each listed record?
1. O=C1c2ccccc2N2C(=O)c3ccccc3C2N1O (configuration not stated)
2. CCSc1nnc(NC(=O)CSc2nccn2-c2cccc(C)c2)s1
3. Cn1nnnc1Sc1ncnc2scc(-c3ccc(C(F)(F)F)cc3)c12
4. CCn1c2ccccc2c2cc(NC(=O)c3cccc(OC)c3OC)ccc21

Response:
56.4 µM
> 100 µM
15 µM
> 100 µM

Values compiled from PubChem BioAssay AID434987.
